Test system: KM-20L2
Assay: NCI tumour cell line growth inhibition, 48 h
Calls of active or inactive are those of the source. Rule as the data show it: active = GI50 up to about 1.1 µM and inactive = higher.
Answer with one of the outcomes given here: true = active, false = inactive

Here's what some known entries look like.
compound	class
CCCCCCCCCCCCCCCC(=O)OCC1OC(n2cc(F)c(=O)[nH]c2=O)C(NC(=O)OCc2ccccc2)C(O)C1O (configuration not stated)	false
O=C(CO)CC(=O)C(=O)Nc1ccccc1	false
O=[N+]([O-])c1cc(Cl)ccc1S(=O)(=O)c1ccc(Cl)cc1[N+](=O)[O-]	false
O=C1CCC2(O)c3ccccc3C2Cc2ccccc21 (configuration not stated)	false
COc1ccc2c(=O)c([Se]c3coc4cc(OC)ccc4c3=O)coc2c1	false

Could you check what this test reported for C=C1C2C[C@@H]3OC4CC5O[C@]6(CC5OC4C(C)C3OC(=O)CC3CC[C@@H]4OC5C7OC8C[C@](CCC9CC(=C)[C@H](CCC(C[C@H]1C)O2)O9)(OC7C4O3)O[C@@H]85)C[C@@H]1O[C@@]2(CC(C)[C@@H]3OC(CC(=O)CCO)C(O)C[C@@H]3O2)CC(C)[C@@H]1O6 (some centres not stated) ?
true

I'd appreciate the recorded outcome for COc1ccc(CCN(C)C2CCC(C#N)(c3ccc(OC)c(OC)c3)CC2)cc1OC (configuration not stated) from this test.
false

Which result was noted for this compound in the test: COc1ccc(NC(=O)C2=CC(=O)c3ccc(O)cc3C2=O)c(OC)c1
false

Please state the recorded outcome for this compound: O=C1C(Cl)N(c2ccc(Cl)cc2)C1c1c[nH]c2ccccc12 (configuration not stated)
false

Hi, sorry to bother you, what did the test record for CC(C)(C)OC(=O)N[C@H]1CC(O)c2ccccc2N(CC(=O)O)C1=O (some centres not stated) ?
false

Could you check what this test reported for COC(=O)CCCCCOS(=O)(=O)c1ccc(C)cc1 ?
false
